Numbers sourced from paper PMC4748814.

Target: PNPase (UniProt P05055)
Sequence: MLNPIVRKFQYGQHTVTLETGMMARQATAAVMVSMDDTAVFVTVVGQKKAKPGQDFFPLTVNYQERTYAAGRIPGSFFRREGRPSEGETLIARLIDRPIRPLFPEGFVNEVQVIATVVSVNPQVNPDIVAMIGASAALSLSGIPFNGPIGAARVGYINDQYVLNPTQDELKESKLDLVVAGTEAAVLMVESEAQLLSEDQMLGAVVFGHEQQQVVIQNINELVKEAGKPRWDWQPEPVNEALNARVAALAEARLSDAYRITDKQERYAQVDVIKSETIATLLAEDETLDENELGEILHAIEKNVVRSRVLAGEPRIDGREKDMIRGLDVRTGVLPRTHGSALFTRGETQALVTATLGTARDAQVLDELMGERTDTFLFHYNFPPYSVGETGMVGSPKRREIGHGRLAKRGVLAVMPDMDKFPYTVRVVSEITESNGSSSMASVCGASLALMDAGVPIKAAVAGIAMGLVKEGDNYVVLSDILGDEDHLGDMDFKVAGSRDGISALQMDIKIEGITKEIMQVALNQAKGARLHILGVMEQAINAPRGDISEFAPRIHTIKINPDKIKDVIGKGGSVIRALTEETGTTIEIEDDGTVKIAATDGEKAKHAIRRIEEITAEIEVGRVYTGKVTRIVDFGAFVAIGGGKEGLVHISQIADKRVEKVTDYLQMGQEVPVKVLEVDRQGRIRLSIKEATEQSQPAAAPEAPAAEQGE
Experiment: BLI
Settings: EMSA: 20 mM Tris pH 7.5, 100 mM NaCl, 1 mM MgCl2, 1 mM DTT, 30 C, 0.2 uM RNA; BLI: same buffer + 1 mg/mL acetylated BSA; ITC: 20 mM Tris-HCl pH 7.5, 1 mM …
reported metric: Kd (nM)
Answers are plain numbers, in nM.

Which Kd is listed for GCGAUCAGGAAGACCCUCGCGGAGAACCUGAAAGCACGACAUUGCUCACAUUGCUUCCAGUAUUACUUAGCCAGCCGGGUGCUGGCUUUUUUUUU [5'-biotin RyhB (9U)] ?
15.8
